For each of the molecules below, state its pIC50.
- Test target: JAK2 (Homo sapiens, UniProt O60674)
- Construct: purchased Carna Biosciences
- Sequence (O60674 whole entry): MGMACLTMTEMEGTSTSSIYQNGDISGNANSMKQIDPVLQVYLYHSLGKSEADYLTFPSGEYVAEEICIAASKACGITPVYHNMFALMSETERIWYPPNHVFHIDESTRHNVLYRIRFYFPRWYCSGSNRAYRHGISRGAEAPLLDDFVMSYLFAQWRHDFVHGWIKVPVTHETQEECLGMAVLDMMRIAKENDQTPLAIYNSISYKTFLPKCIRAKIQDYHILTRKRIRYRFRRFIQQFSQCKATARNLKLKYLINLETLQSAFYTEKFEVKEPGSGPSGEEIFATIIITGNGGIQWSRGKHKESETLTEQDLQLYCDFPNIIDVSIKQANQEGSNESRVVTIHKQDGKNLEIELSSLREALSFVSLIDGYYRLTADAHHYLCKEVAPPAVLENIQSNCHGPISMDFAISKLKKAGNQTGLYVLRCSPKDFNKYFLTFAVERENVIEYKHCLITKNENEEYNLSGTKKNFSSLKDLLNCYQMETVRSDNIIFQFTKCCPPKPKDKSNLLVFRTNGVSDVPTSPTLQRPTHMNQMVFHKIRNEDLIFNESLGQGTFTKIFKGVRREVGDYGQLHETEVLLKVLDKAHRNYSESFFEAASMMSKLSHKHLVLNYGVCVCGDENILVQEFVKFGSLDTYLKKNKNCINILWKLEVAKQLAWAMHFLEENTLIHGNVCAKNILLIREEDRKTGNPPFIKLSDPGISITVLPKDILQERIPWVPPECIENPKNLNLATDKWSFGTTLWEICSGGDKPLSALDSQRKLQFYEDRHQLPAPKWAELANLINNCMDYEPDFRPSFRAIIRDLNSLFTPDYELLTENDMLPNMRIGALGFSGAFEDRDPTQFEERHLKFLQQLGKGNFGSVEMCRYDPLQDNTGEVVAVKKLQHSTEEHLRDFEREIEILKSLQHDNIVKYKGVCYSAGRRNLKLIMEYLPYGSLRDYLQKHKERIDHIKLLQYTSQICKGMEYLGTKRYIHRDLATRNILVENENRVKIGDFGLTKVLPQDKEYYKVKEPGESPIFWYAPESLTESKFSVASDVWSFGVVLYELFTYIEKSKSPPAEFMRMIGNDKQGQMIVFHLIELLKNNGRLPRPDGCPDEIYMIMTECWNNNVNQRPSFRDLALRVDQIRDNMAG
- Test method notes: JAK2 microfluidic kinase assay (Caliper EZ Reader II, FAM labeled peptide substrate)
- Format: biochemical
- Measurement conditions: IC50 JAK2 ([…]) (1 mM ATP), 1 mM ATP
Numbers only, as −log10 of the molar value.

For orientation, consider the following solved cases.
CC[C@@H](C#N)NC(=O)c1ccc(-c2nc(Nc3cnn(C(C)C(F)(F)F)c3)ncc2C)cc1 (stereo partly shown) [Example 195]    7.58
CC[C@@H](C#N)NC(=O)c1ccc(-c2nc(Nc3cnn(C4CCCN(C)C4)c3)ncc2C)cc1 (stereo partly shown)    9.18

Would you mind giving pIC50 for every molecule in the list below?
1. CC[C@@H](C#N)NC(=O)c1ccc(-c2nc(Nc3cnn(C4CCNCC4)c3)ncc2C)cc1
2. C[C@H](C#N)NC(=O)c1ccc(-c2nc(Nc3cnn(C4CC4)c3)ncc2Cl)cc1
3. CC[C@@H](C#N)NC(=O)c1ccc(-c2nc(Nc3cnn(C4CC4)c3)ncc2Cl)cc1

1. 9.11
2. 7.38
3. 8.33

Would you mind giving pIC50 for every molecule in the list below?
1. Cc1cnc(Nc2cnn(C3CC(C)(C)OC(C)(C)C3)c2)nc1-c1ccc(C(=O)N[C@@H](C)C#N)c(F)c1
2. Cc1cnc(Nc2cnn(CCO)c2)nc1-c1ccc(C(=O)N[C@H](C#N)C(C)C)cc1
3. N#CCNC(=O)c1ccc(-c2nc(Nc3cnn(C4CC4)c3)ncc2Cl)cc1
4. CC[C@@H](C#N)NC(=O)c1ccc(-c2nc(Nc3cn[nH]c3)ncc2Cl)cc1
5. Cc1cnc(Nc2cnn(C3C[C@@H](C)N[C@H](C)C3)c2)nc1-c1ccc(C(=O)N[C@@H](C)C#N)cc1 (stereo partly shown)
6. Cc1cnc(Nc2cnn(C3CCN(C)CC3)c2)nc1-c1ccc(C(=O)N2CC(C#N)C2)cc1
7. Cc1cnc(Nc2cnn(C3CCN(CC(F)(F)F)CC3)c2)nc1-c1ccc(C(=O)NCC#N)cc1
8. Cc1cnc(Nc2cnn(C3CCN(C(=O)[C@H]4CC4(C)C)CC3)c2)nc1-c1ccc(C(=O)NCC#N)cc1

1: 9.31; 2: 7.38; 3: 8.35; 4: 7.82; 5: 9.15; 6: 6.94; 7: 8.80; 8: 9.40

Would you mind giving pIC50 for every molecule in the list below?
1. Cn1cc(Nc2ncc(Cl)c(-c3ccc(C(=O)NCC#N)cc3)n2)cn1
2. Cc1cnc(Nc2cnn(CCC#N)c2)nc1-c1ccc(C(=O)N[C@@H](C)C#N)cc1
3. Cc1cnc(Nc2cnn(C3CCN(C)CC3)c2)nc1-c1ccc(C(=O)N[C@H](C#N)C(C)C)cc1
4. Cc1cnc(Nc2cnn(C3CC3)c2)nc1-c1ccc(C(=O)NC2(C#N)CC2)cc1
5. CC[C@@H](C#N)NC(=O)c1ccc(-c2nc(Nc3cnn(C(C)C(F)(F)F)c3)ncc2C)cc1 (single isomer, unassigned) [Example 225]

1: 7.61; 2: 7.39; 3: 9.07; 4: 7.15; 5: 7.37

* * *

- Test method notes: Rat pharmacokinetic study (intravenous and oral)
- Format: in vivo
- Measurement conditions: male, rat, plasma; Sprague-Dawley rats, oral, 2 mg/kg, solution
Quantity name: half-life (min)
Numbers only, in min.

Looking for the measured half-life of `Cc1cnc(Nc2cnn(CC#N)c2)nc1-c1ccc(C(=O)NCC#N)cc1` , can you help?
22.8

* * *

- Test target: JAK2 (Homo sapiens)
- Construct: purchased Carna Biosciences
- Test method notes: JAK2 microfluidic kinase assay (Caliper EZ Reader II, FAM labeled peptide substrate)
- Format: biochemical
- Measurement conditions: IC50 JAK2 ([…]) (Km ATP), Km ATP
pIC50: −log10 of the molar value.
Threshold rule: pIC50 greater than or equal to 9 is true (1); below that, false (0).

Use these answered entries as a reference point.
Cc1cnc(Nc2cnn(C3CCN(C(=O)C(C)(C)C)CC3)c2)nc1-c1ccc(C(=O)NCC#N)cc1 [Example 21]    true (1)
Cc1cnc(Nc2cnn(CC(F)(F)F)c2)nc1-c1ccc(C(=O)NCC#N)cc1 [Example 28]    false (0)

Does the reported pIC50 for Cc1cnc(Nc2cnn(C3CCOCC3)c2)nc1-c1ccc(C(=O)NCC#N)cc1 [Example 26] fall at or above the 9 mark?
true (1)

Does the reported pIC50 for Cc1cnc(Nc2cnn(C)c2)nc1-c1ccc(C(=O)NCC(C)(C)C#N)cc1 [Example 13] fall at or above the 9 mark?
false (0)

* * *

- Test method notes: Rat pharmacokinetic study (intravenous and oral)
- Format: in vivo
- Measurement conditions: male, rat, plasma; Sprague-Dawley rats, oral, 2 mg/kg, solution
Quantity name: AUC (ng·h/mL)
One number for each entry, in ng·h/mL.

Looking for the measured AUC of Cc1cnc(Nc2cnn(CC#N)c2)nc1-c1ccc(C(=O)NCC#N)cc1 [Example 4] , can you help?
29.8

* * *

For each of the compounds below, state its pIC50.
- Test target: CYP2C9 (Homo sapiens)
- Sequence (P11712 whole entry): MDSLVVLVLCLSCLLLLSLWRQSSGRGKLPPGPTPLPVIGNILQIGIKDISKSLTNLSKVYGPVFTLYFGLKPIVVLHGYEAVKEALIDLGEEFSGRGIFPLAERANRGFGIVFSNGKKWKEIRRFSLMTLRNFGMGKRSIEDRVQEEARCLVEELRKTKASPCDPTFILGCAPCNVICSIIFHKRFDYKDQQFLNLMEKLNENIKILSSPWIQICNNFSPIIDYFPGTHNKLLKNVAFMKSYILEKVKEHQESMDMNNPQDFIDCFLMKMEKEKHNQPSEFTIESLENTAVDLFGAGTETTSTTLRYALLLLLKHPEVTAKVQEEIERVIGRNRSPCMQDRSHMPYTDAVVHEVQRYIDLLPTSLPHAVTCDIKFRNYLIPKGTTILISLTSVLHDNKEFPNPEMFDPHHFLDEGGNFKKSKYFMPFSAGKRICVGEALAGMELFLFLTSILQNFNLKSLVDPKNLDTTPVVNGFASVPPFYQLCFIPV
Numbers only, as −log10 of the molar value.

C[C@@H](C#N)NC(=O)c1ccc(-c2nc(Nc3cnn(C4CCNCC4)c3)ncc2Cl)cc1    4.72

Would you mind giving pIC50 for every compound in the list below?
1. Cc1cnc(Nc2cnn(C3CC(C)(C)OC(C)(C)C3)c2)nc1-c1ccc(C(=O)NCC#N)cc1
2. CC[C@@H](C#N)NC(=O)c1ccc(-c2nc(Nc3cn[nH]c3)ncc2Cl)cc1

[4.85, 5.22]

* * *

- Test method notes: Liver microsomes study, Phase I stability (RLM)
- Assay type: in vitro ADME, rat
- Measurement conditions: pH 7.4; rat liver microsomes 0.5 mg/mL, 1 μM test article; read-out: RLM Clint
Threshold rule: microsomal CLint at 1 μM greater than or equal to 50 µL/min/mg is true (1); below that, false (0).

N#CCNC(=O)c1ccc(-c2nc(Nc3cnn(C4CC4)c3)ncc2Cl)cn1    false (0)
N#CC1(CNC(=O)c2ccc(-c3nc(Nc4cnn(C5CC5)c4)ncc3Cl)cc2)CC1    false (0)
C[C@H](C#N)NC(=O)c1ccc(-c2nc(Nc3cnn(C)c3)ncc2Cl)cc1    false (0)
Cc1cnc(Nc2cnn(C3CCN(C(=O)C4CC4)CC3)c2)nc1-c1ccc(C(=O)NCC#N)cc1    true (1)
Cc1cnc(Nc2cnn(C3CCN(C(=O)C4(F)CC4)CC3)c2)nc1-c1ccc(C(=O)NCC#N)cc1    true (1)

Does the reported microsomal CLint at 1 μM for `Cc1cnc(Nc2cnn(C)c2)nc1-c1ccc(C(=O)NCC(C)(C)C#N)cc1` fall at or above the 50 µL/min/mg mark?
true (1)

Does the reported microsomal CLint at 1 μM for `CC(C)(C#N)CNC(=O)c1ccc(-c2nc(Nc3cnn(C4CC4)c3)ncc2Cl)cc1` fall at or above the 50 µL/min/mg mark?
true (1)

Does the reported microsomal CLint at 1 μM for `Cc1cnc(Nc2cnn(C3CCN(C)CC3)c2)nc1-c1ccc(C(=O)N[C@H](C#N)C2CC2)cc1` fall at or above the 50 µL/min/mg mark?
true (1)

* * *

- Test method notes: Rat pharmacokinetic study (intravenous and oral)
- Type: in vivo
- Measurement conditions: male, rat, plasma; Sprague-Dawley rats, oral, 10 mg/kg, solution
Quantity name: AUC (ng·h/mL)
Numbers only, in ng·h/mL.

Looking for the measured AUC of C[C@@H](C#N)NC(=O)c1ccc(-c2nc(Nc3cnn(C4CCOCC4)c3)ncc2Cl)cc1 [Example 39] , can you help?
1090

* * *

- Test method notes: Liver microsomes study, Phase I stability (HLM)
- Type: in vitro ADME, human
- Measurement conditions: pH 7.4; human liver microsomes 0.5 mg/mL, 1 μM test article; read-out: HLM Clint
For each of the compounds below, state its microsomal CLint at 1 μM.
Numbers only, in µL/min/mg.

For orientation, consider the following solved cases.
Cc1cnc(Nc2cnn(C3CC(C)(C)OC(C)(C)C3)c2)nc1-c1ccc(C(=O)N[C@@H](C)C#N)cc1    456
Cc1cnc(Nc2cnn(C(C)C(F)(F)F)c2)nc1-c1ccc(C(=O)N[C@@H](C)C#N)cc1 (stereo partly shown)    7.27
C[C@@H](C#N)NC(=O)c1ccc(-c2nc(Nc3cnn(C4CCN(C)CC4)c3)ncc2F)cc1    8.92

Looking for the measured microsomal CLint at 1 μM of `CC[C@@H](C#N)NC(=O)c1ccc(-c2nc(Nc3cnn(CCO)c3)ncc2C)cc1` , can you help?
5.05

* * *

- Test method notes: Mouse pharmacokinetic study (intravenous and oral)
- Assay type: in vivo
- Measurement conditions: male, plasma, ICR mice, oral, 5 mg/kg, solution
- Experimental: Pharmacokinetic profile of test articles in rodent were evaluated in fasted male ICR mouse and Sprague-Dawley rats. […] Rats were dosed with 1 mg/kg and 5 mg/kg by intravenous injection and oral gavage, respectively. Beagle dogs were dosed with 1 mg/kg and 5 mg/kg by intravenous injection and oral gavage, respectively. […] Plasma was obtained within 1 hours of blood collection by centrifugation at 8000×g and 4° C. for 6 minutes, and then stored at −20° C. until analyzed by LCMS/MS for quantification.
Quantity name: Cmax (ng/mL)
Give bare numbers, in ng/mL.

Looking for the measured Cmax of Cc1cnc(Nc2cnn(C3CC(C)(C)OC(C)(C)C3)c2)nc1-c1ccc(C(=O)NCC#N)cc1 [Example 113] , can you help?
175
